- measurement_protocol: Strontium distribution ratio (DSr), equilibrium batch contact of mixed extractant solvent with nitric acid feed
- Assay type: physicochemical
- condition_context: first forward extraction, 1.5 M HNO3 feed simulant, 25 °C; 0.007 M calixarene, 0.075 M DtBuCH18C6, 0.75 M Cs-7SB, 0.003 M TOA in ISOPAR L
Overview of recorded Strontium distribution ratio, contact E1 for various compounds
The answer should be a number; do not append a unit.

Previously resolved entries follow.
compound: CCCCCCCCCCOc1c2cccc1Cc1cccc3c1OCCOCCOc1ccccc1OCCOCCOc1c(cccc1Cc1cccc(c1OCCCCCCCCCC)C3)C2
Strontium distribution ratio, contact E1: 9.5

compound: CCCCCCCCCCCCOc1c2cccc1Cc1cccc3c1OCCOCCOc1ccccc1OCCOCCOc1c(cccc1Cc1cccc(c1OCCCCCCCCCCCC)C3)C2
Strontium distribution ratio, contact E1: 7.7

compound: CCCCC(CCCC)CCCOc1c2cccc1Cc1cccc3c1OCCOCCOc1ccccc1OCCOCCOc1c(cccc1Cc1cccc(c1OCCCC(CCCC)CCCC)C3)C2 [MC-12B]
Strontium distribution ratio, contact E1: 7.7

compound: CC(C)CCCC(C)CCOc1c2cccc1Cc1cccc3c1OCCOCCOc1ccccc1OCCOCCOc1c(cccc1Cc1cccc(c1OCCC(C)CCCC(C)C)C3)C2 (stereo not drawn) [MC-10B]
Strontium distribution ratio, contact E1: 9.6

compound: CCCCCCCCOc1c2cccc1Cc1cccc3c1OCCOCCOc1ccccc1OCCOCCOc1c(cccc1Cc1cccc(c1OCCCCCCCC)C3)C2
Strontium distribution ratio, contact E1: 10.5

Consider the additional compound presented here.
Report Strontium distribution ratio, contact E1 for CCCCC(CC)COc1c2cccc1Cc1cccc3c1OCCOCCOc1ccccc1OCCOCCOc1c(cccc1Cc1cccc(c1OC[C@H](CC)CCCC)C3)C2 (stereo partly drawn) please.
8.9

====

- measurement_protocol: Solvent stability: strontium distribution ratios as a function of contact time with 1.5 M HNO3
- Type: physicochemical
- condition_context: contact time 0 days with 1.5 M HNO3; 0.007 M calixarene, 0.075 M DtBuCH18C6, 0.75 M Cs-7SB, 0.003 M TOA in ISOPAR L
- Protocol: The stability of the mixed extractant solvents prepared using dialkyloxycalix[4]arenebenzocrown-6 compounds (MC-8, MC-8B, MC-10, MC-10B, MC-12, or MC-12B) relative to BOBCalixC6 in the FPEX I process solvent was determined. Samples were prepared using each of the dialkyloxycalix[4]arenebenzocrown-6 compounds and contacted with 1.5 M HNO3. […]
// returns False unless Strontium distribution ratio as a function of contact time is strictly below 9, in which case True

Some solved cases for reference:
compound: CCCCCCCCOc1c2cccc1Cc1cccc3c1OCCOCCOc1ccccc1OCCOCCOc1c(cccc1Cc1cccc(c1OCCCCCCCC)C3)C2 [MC-8]
class: False
--
compound: CC(C)CCCC(C)CCOc1c2cccc1Cc1cccc3c1OCCOCCOc1ccccc1OCCOCCOc1c(cccc1Cc1cccc(c1OCCC(C)CCCC(C)C)C3)C2 (stereo not drawn) [MC-10B]
class: False

Given the entry CCCCCCCCCCOc1c2cccc1Cc1cccc3c1OCCOCCOc1ccccc1OCCOCCOc1c(cccc1Cc1cccc(c1OCCCCCCCCCC)C3)C2 [MC-10] , would its reported Strontium distribution ratio as a function of contact time be below 9?
False

Given the entry CCCCCCCCCCCCOc1c2cccc1Cc1cccc3c1OCCOCCOc1ccccc1OCCOCCOc1c(cccc1Cc1cccc(c1OCCCCCCCCCCCC)C3)C2 [MC-12] , would its reported Strontium distribution ratio as a function of contact time be below 9?
True

Given the entry CCCCC(CCCC)CCCOc1c2cccc1Cc1cccc3c1OCCOCCOc1ccccc1OCCOCCOc1c(cccc1Cc1cccc(c1OCCCC(CCCC)CCCC)C3)C2 [MC-12B] , would its reported Strontium distribution ratio as a function of contact time be below 9?
True

====

- measurement_protocol: Solvent stability: cesium distribution ratios as a function of contact time with 1.5 M HNO3
- Format: physicochemical
- condition_context: contact time 278 days with 1.5 M HNO3
result_type: Cesium distribution ratio as a function of contact time
The answer should be a number; do not append a unit.

Report Cesium distribution ratio as a function of contact time for CC(C)CCCC(C)CCOc1c2cccc1Cc1cccc3c1OCCOCCOc1ccccc1OCCOCCOc1c(cccc1Cc1cccc(c1OCCC(C)CCCC(C)C)C3)C2 (centres unmarked) [MC-10B] please.
2.8

Report Cesium distribution ratio as a function of contact time for `CCCCCCCCCCCCOc1c2cccc1Cc1cccc3c1OCCOCCOc1ccccc1OCCOCCOc1c(cccc1Cc1cccc(c1OCCCCCCCCCCCC)C3)C2` please.
2.8

Report Cesium distribution ratio as a function of contact time for `CCCCCCCCCCOc1c2cccc1Cc1cccc3c1OCCOCCOc1ccccc1OCCOCCOc1c(cccc1Cc1cccc(c1OCCCCCCCCCC)C3)C2` please.
1.1

Report Cesium distribution ratio as a function of contact time for `CCCCCCCCOc1c2cccc1Cc1cccc3c1OCCOCCOc1ccccc1OCCOCCOc1c(cccc1Cc1cccc(c1OCCCCCCCC)C3)C2` please.
2.8

Report Cesium distribution ratio as a function of contact time for CCCCC(CC)COc1c2cccc1Cc1cccc3c1OCCOCCOc1ccccc1OCCOCCOc1c(cccc1Cc1cccc(c1OC[C@H](CC)CCCC)C3)C2 (some centres unmarked) please.
2.8

====

- measurement_protocol: Solvent stability: strontium distribution ratios as a function of contact time with 1.5 M HNO3
- Assay type: physicochemical
- condition_context: contact time 34 days with 1.5 M HNO3
result_type: Strontium distribution ratio as a function of contact time
The answer should be a number; do not append a unit.

compound: CCCCCCCCOc1c2cccc1Cc1cccc3c1OCCOCCOc1ccccc1OCCOCCOc1c(cccc1Cc1cccc(c1OCCCCCCCC)C3)C2 [MC-8]
endpoint_value: 7.7

compound: CCCCCCCCCCOc1c2cccc1Cc1cccc3c1OCCOCCOc1ccccc1OCCOCCOc1c(cccc1Cc1cccc(c1OCCCCCCCCCC)C3)C2 [MC-10]
endpoint_value: 7.7

Report Strontium distribution ratio as a function of contact time for CCCCC(CC)COc1c2cccc1Cc1cccc3c1OCCOCCOc1ccccc1OCCOCCOc1c(cccc1Cc1cccc(c1OC[C@H](CC)CCCC)C3)C2 (stereo partly shown) [MC-8B] please.
7.2

Report Strontium distribution ratio as a function of contact time for CC(C)CCCC(C)CCOc1c2cccc1Cc1cccc3c1OCCOCCOc1ccccc1OCCOCCOc1c(cccc1Cc1cccc(c1OCCC(C)CCCC(C)C)C3)C2 (stereo not shown) [MC-10B] please.
8.5

====

Overview of recorded Cesium distribution ratio, contact E1 for various compounds
- measurement_protocol: Cesium distribution ratio (DCs), equilibrium batch contact of mixed extractant solvent with nitric acid feed
- Assay type: physicochemical
- condition_context: first forward extraction, 1.5 M HNO3 feed simulant, 25 °C; 0.007 M calixarene, 0.075 M DtBuCH18C6, 0.75 M Cs-7SB, 0.003 M TOA in ISOPAR L
- Excerpt: The distribution of cesium and strontium between the first organic phase (the mixed extractant solvent including the dialkyloxycalix[4]arenebenzocrown-6 compound) and the first aqueous phase (aqueous feed) may be determined by conventional techniques. The distribution ratio for strontium (“DSr”) may be calculated as the ratio of organic phase activity to the aqueous phase activity at equilibrium. […]

compound: CCCCC(CC)COc1c2cccc1Cc1cccc3c1OCCOCCOc1ccccc1OCCOCCOc1c(cccc1Cc1cccc(c1OC[C@H](CC)CCCC)C3)C2 (stereo partly drawn) [MC-8B]
Cesium distribution ratio, contact E1: 1.4

compound: CCCCCCCCCCOc1c2cccc1Cc1cccc3c1OCCOCCOc1ccccc1OCCOCCOc1c(cccc1Cc1cccc(c1OCCCCCCCCCC)C3)C2 [MC-10]
Cesium distribution ratio, contact E1: 3.7

Consider the additional compound presented here.
Report Cesium distribution ratio, contact E1 for CCCCCCCCOc1c2cccc1Cc1cccc3c1OCCOCCOc1ccccc1OCCOCCOc1c(cccc1Cc1cccc(c1OCCCCCCCC)C3)C2 [MC-8] please.
4.2

====

Overview of recorded Cesium distribution ratio, contact St2 for various compounds
- measurement_protocol: Cesium distribution ratio (DCs), equilibrium batch contact of mixed extractant solvent with nitric acid feed
- Type: physicochemical
- condition_context: second strip with 0.01 M HNO3, 35 °C; 0.007 M calixarene solvent
- Excerpt: The distribution of cesium and strontium between the first organic phase (the mixed extractant solvent including the dialkyloxycalix[4]arenebenzocrown-6 compound) and the first aqueous phase (aqueous feed) may be determined by conventional techniques. The distribution ratio for strontium (“DSr”) may be calculated as the ratio of organic phase activity to the aqueous phase activity at equilibrium. […]
The answer should be a number; do not append a unit.

Previously resolved entries follow.
compound: CCCCC(CCCC)CCCOc1c2cccc1Cc1cccc3c1OCCOCCOc1ccccc1OCCOCCOc1c(cccc1Cc1cccc(c1OCCCC(CCCC)CCCC)C3)C2 [MC-12B]
endpoint_value: 0.2
--
compound: CCCCCCCCOc1c2cccc1Cc1cccc3c1OCCOCCOc1ccccc1OCCOCCOc1c(cccc1Cc1cccc(c1OCCCCCCCC)C3)C2
endpoint_value: 0.2

Consider the additional compound presented here.
Report Cesium distribution ratio, contact St2 for CCCCC(CC)COc1c2cccc1Cc1cccc3c1OCCOCCOc1ccccc1OCCOCCOc1c(cccc1Cc1cccc(c1OC[C@H](CC)CCCC)C3)C2 (stereo partly drawn) please.
0.1

FYI, the data here is from patent US8158088B2.
